Data provenance is PubChem BioAssay (NCI).

system: RPMI-8226 leukemia; test: NCI tumour cell line growth inhibition, 48 h
Observation Type: TGI

Previously resolved entries follow.
COC(=O)c1cccc(NC(=O)c2ccc(NC3=C(Cl)C(=O)N(Cc4ccccc4)C3=O)cc2)c1 :: 23.9 µM
O=C(/C=C/c1cccc(Br)c1)N1CCN(CCOC(c2ccccc2)c2ccccc2)CC1 :: 36.2 µM
CC[C@@H](C)/C=C(C)/C=C/C(=O)c1c(O)c(-c2ccc(O)cc2)cn(OC2CC(=O)CCC(C)OC(=O)CC2O)c1=O (stereo partly specified) :: 22.9 µM
CN(C)CCCCNc1ccc(NCCCCN(C)C)c2c1C(=O)c1c(O)ccc(O)c1C2=O :: 6.49 µM
CC#CC#C/C=C1\C=CC2(OC=CC2O)O1 (stereo unspecified) :: > 23.3 µM

Required: TGI, one value per compound below.
1. O=C1OC(c2ccccc2Br)=N/C1=C/c1ccccc1
2. C[C@]12CC[C@@H]3c4ccc(OC(=O)N(CCCl)CCCl)cc4CC[C@H]3[C@@H]1CC[C@@H]2OP(=O)(O)O
3. O=C(Nc1cccc(-n2cc(-c3ccncc3)c(-c3ccc(Cl)c(O)c3)n2)c1)Nc1ccc(Cl)c(Cl)c1
4. C/C(CCN(C)C)=N\OC(=O)c1ccccc1
5. COc1cc(C2CC(c3cccc(Nc4ccnc5cc(Cl)ccc45)c3)=NN2c2ccccc2)cc(OC)c1OC (stereo unspecified)
6. COc1ccc2nc3cc(Cl)ccc3c(NCCCCCC(=O)NC(COc3ccc4ccc5cccnc5c4n3)COc3ccc4ccc5cccnc5c4n3)c2c1

["> 100 µM", "> 100 µM", "> 32.5 µM", "> 100 µM", "> 100 µM", "17.3 µM"]

---

system: SK-MEL-28 melanoma; experiment: NCI tumour cell line growth inhibition, 48 h
Observation Type: TGI (µM)
Numbers only, in µM.

Previously resolved entries follow.
C#CCn1c(=O)ccn(/C(=C/C(=O)OCC)C(=O)OCC)c1=O :: 21.6
COC(=O)c1c2c(c(C)[n+]([O-])c1C)C(=O)C(NCc1ccc(O)cc1)=CC2=O :: 4.36
N=c1oc2cc(O)ccc2cc1C(=O)Nc1cccc2ccccc12 :: 34.4
O=C(CN1CCN(C(=O)c2ccco2)CC1)Nc1ccc(Cl)cc1C(=O)c1ccccc1Cl :: 23.9

Then there is this compound:
For reference, reported TGI for "COc1ccc(C=O)cc1OS(=O)(=O)C(F)(F)C(F)(F)C(F)(F)C(F)(F)F" stands at 97.5

---

test system: RXF-631 renal; experiment: NCI tumour cell line growth inhibition, 48 h
Observation Type: TGI

Required: TGI, one value per molecule below.
1. CC1C(O)=C(O)c2ccccc2N1O (stereo not given)
2. CC1[C@@H]2CC=C3[C@H]4CCC5Cc6nc7c(nc6C[C@@]5(C)C4CC(=O)[C@]32CO[C@]12OC(C)(C)CC2O)CC1CC[C@@H]2C3=C[C@H]4O[C@@]5(O[C@@](C)(CO)C[C@@H]5O)C(C)[C@@]4(O)[C@]3(C)[C@@H](O)CC2[C@]1(C)C7 (stereo not given in full)
3. COC(=O)C1=CC(=O)[C@@H]2CCCC[C@H]12
4. N#Cc1cccc(C2C(=O)c3ccc(C(=O)c4ccc5c(c4)C(=O)N(c4ccc(Oc6ccc(N7C(=O)c8ccc(C(=O)c9ccc%10c(c9)C(=O)N(c9cccc(C#N)c9)C%10=O)cc8C7=O)cc6)cc4)C5=O)cc3C2=O)c1 (stereo not given)
5. N#C/C(=C\c1ccc[nH]1)C(=O)c1ccccc1

1. > 100 µM
2. 0.00275 µM
3. > 100 µM
4. > 100 µM
5. > 100 µM

---

test system: OVCAR-4 ovarian; assay: NCI tumour cell line growth inhibition, 48 h
Provide the reported GI50 of each item.

Previously resolved entries follow.
O=C(CCN1CCCN(c2cnc3ccccc3n2)CC1)c1csc2ccccc12 :: 18.5 µM
Cc1cc(C)c2c(c1)N(C)c1ncnc(-n3cnc4cc(C)ccc43)c1CC2C (stereo not given) :: 4.18 µM
CN(C)c1ccc(/C=c2/c3cc(O)ccc3n3c2cc(-c2ccccc2)[n+]3C)cc1 :: 2.83 µM
C[C@]12CC[C@@H]3c4ccc(OC(=O)N(CCCl)CCCl)cc4CC[C@H]3[C@@H]1CC[C@@H]2OP(=O)(O)O :: > 58.1 µM

Then there is this molecule:
For reference, reported GI50 for CCC(C)C1NC(=O)C(NC(=O)C(CC(C)C)N(C)C(=O)[C@@H]2CC(O)CN2C(=O)[C@H](C)O)C(C)OC(=O)[C@H](Cc2ccc(OC)cc2)N(C)C(=O)[C@@H]2CCCN2C(=O)[C@H](CC(C)C)NC(=O)C(C)C(=O)[C@H](C(C)C)OC(=O)CC1O (stereo not given in full) stands at 0.0246 µM

---

system: MALME-3M melanoma; test: NCI tumour cell line growth inhibition, 48 h
Provide the reported TGI of each item.

Previously resolved entries follow.
C=CC(=O)N1CCC[C@@H](n2nc(-c3ccc(Oc4ccccc4)cc3)c3c(N)ncnc32)C1 :: > 10 µM
CCc1ccccc1NC(=O)C(=O)C1C(=O)N(c2ccccc2)N=C1N (centres undefined) :: > 100 µM
OCC1OC(n2cnc3c(Cl)nc(Nc4ccc(Cl)c(Cl)c4)nc32)CC1O (centres undefined) :: 21.2 µM
O=C(O)c1ccc(/C=N/N=C2c3ccccc3-c3ccccc32)cc1 :: > 100 µM
O=C1c2ccccc2C(=O)N1NC1=NCCN1 :: > 100 µM

Required: TGI, one value per molecule below.
1. CO/C(=C1/NC(=O)C(Cc2ccc(O)c(Br)c2)N(C)C(=O)C(C)NC(=O)CCC/C=C(\C)CCC(C)OC1=O)c1ccccc1 (centres undefined)
2. COC(=O)[C@]12CC[C@@H](C)[C@H](C)[C@@H]1C1=CC[C@@H]3[C@@](C)(CC#N)C4=C(C[C@@]3(C)[C@]1(C)CC2)OC[C@]4(C)C=O

["0.123 µM", "27.8 µM"]

Required: TGI, one value per molecule below.
1. CC/C=C\C=C/C(=O)N/C=C/CCC
2. [O-][N+]1=C2CCC/C(=N/O)C2(O)C2CCCCC21N1CCOCC1 (centres undefined)
3. O=C1OC(c2ccccc2Br)=N/C1=C/c1ccccc1
4. CC(=O)Nc1ccc(C2=N/C(=C\c3ccc(Cl)cc3)C(=O)O2)cc1
5. Cn1c(=O)cc(Nc2ccc(N)cc2)[nH]c1=O
6. CC(=O)Oc1cc(-c2oc3cc(OC(C)=O)c(C4OC(CO)C(O)C(O)C4O)c(OC(C)=O)c3c(=O)c2O)c(OC(C)=O)cc1O (centres undefined)
7. COc1ncc(-c2ccc3nccc(C#CCCCCC(=O)NO)c3c2)cc1NS(=O)(=O)c1ccc(F)cc1F

1. > 100 µM
2. > 100 µM
3. 45.5 µM
4. > 100 µM
5. > 100 µM
6. > 100 µM
7. 0.27 µM

---

system: HCT-116 colon; experiment: NCI tumour cell line growth inhibition, 48 h
Observation Type: TGI

Previously resolved entries follow.
O=C1CCC2COc3ccc(O)c1c32 (centres undefined) :: > 100 µM
COC(=O)Cc1c(C2C(CC(=O)OC)c3ccccc3N2C2OC(CO)C(O)C(O)C2O)[nH]c2ccccc12 (centres undefined) :: > 100 µM
CCOC(=O)CC1Nc2ccccc2C12CCc1c([nH]c3ccccc13)C2C(=O)OCC (centres undefined) :: > 100 µM

Required: TGI, one value per compound below.
1. Cc1cc(C)c(/C=N/NS(=O)(=O)c2ccccc2)c(C)c1
2. Cn1c(=O)c2c(=O)cc(N)[nH]c2n(C)c1=O
3. CCOc1ccc2c(c1)C(=O)c1c-2n(CCCN=[N+]=[N-])c(=O)c2cc([N+](=O)[O-])ccc12
4. C[C@]12CC[C@H]3[C@@H](CC[C@]4(O)C[C@@H](O[C@@H]5O[C@H](CO)[C@@H](O[C@@H]6OC[C@@H](O)[C@H](O)[C@H]6O)[C@H](O)[C@H]5O)CC[C@]34C=O)[C@@]1(O)CC[C@@H]2C1=CC(=O)OC1

> 100 µM
> 100 µM
> 100 µM
5.77 µM

Required: TGI, one value per compound below.
1. O=C(O)c1ccc(/C=N/N=C2c3ccccc3-c3ccccc32)cc1
2. COC(=O)C(C(=O)C(=O)Nc1ccccc1C)c1nc2ccc([N+](=O)[O-])cc2[nH]c1=O (centres undefined)

["> 100 µM", "> 100 µM"]

---

system: MOLT-4 leukemia; experiment: NCI tumour cell line growth inhibition, 48 h; in the data active = GI50 below about 0.43 µM; inactive = the rest
Choose the fitting class; nothing outside 1.0 = active, 0.0 = inactive is accepted.

C=CC(=O)N1CCC[C@@H](n2nc(-c3ccc(Oc4ccccc4)cc3)c3c(N)ncnc32)C1 :: 0.0
COc1cc(C2CC(c3cccc(Nc4ccnc5cc(Cl)ccc45)c3)=NN2c2ccccc2)cc(OC)c1OC (stereo not given) :: 0.0
CC(=O)Nc1cc2c3c(cccc3c1)-c1ccccc1-2 :: 0.0
Nc1cc(N)c2nc(NCCc3ccc(Cl)c(Cl)c3)cnc2c1 :: 0.0

Kindly review the next compound as well.
Can you look up the reported call for "Fc1ccc(Nc2nc3nonc3nc2Nc2ccc(I)cc2)cc1" for me?
1.0
